Test: Inhibition of protein kinase A (PKA)
recorded metric: IC50 (µM)
Reply numerically in µM, unit not repeated.

Query string: // returns reported IC50 for input COc1ccc(-c2[nH]nc3c2C(=O)c2ccccc2-3)cc1
Result string: 239

###

Property: IC50; scope: individual compounds
Target: Cyclin-dependent kinase 4/cyclin D1 (Homo sapiens, UniProt P11802)
Sequence (P11802 whole entry): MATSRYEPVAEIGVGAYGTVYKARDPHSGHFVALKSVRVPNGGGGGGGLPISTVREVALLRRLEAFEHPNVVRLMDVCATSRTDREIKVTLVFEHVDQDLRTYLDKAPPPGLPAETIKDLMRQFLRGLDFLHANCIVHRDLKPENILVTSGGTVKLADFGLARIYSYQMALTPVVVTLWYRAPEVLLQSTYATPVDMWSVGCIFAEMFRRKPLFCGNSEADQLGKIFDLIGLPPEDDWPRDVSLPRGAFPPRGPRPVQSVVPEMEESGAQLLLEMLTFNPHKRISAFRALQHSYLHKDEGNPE
Sequence (P24385 whole entry, further chain): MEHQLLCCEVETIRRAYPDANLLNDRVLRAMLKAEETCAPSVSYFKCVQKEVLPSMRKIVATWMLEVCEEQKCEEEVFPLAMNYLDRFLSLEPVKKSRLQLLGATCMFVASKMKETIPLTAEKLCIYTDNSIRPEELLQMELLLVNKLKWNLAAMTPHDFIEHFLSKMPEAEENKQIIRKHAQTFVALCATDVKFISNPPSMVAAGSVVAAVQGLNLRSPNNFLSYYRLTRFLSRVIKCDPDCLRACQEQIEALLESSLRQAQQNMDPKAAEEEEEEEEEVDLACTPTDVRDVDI
Assay: Inhibition of Cyclin Dependent Kinase 4 cyclin D1
Please reply with the bare figure in µM and do not write the unit itself.

Take a look at these entries with their results.
COc1ccc(-c2[nH]nc3c2C(=O)c2c(NC(C)=O)cccc2-3)cc1
0.45
COc1ccc(-c2[nH]nc3c2C(=O)c2ccccc2-3)cc1
45
COc1ccc(-c2[nH]nc3c2C(=O)c2c(NC=O)cccc2-3)cc1
0.2
COc1ccc(-c2[nH]nc3c2C(=O)c2c(NC(=O)C(C)(C)C)cccc2-3)cc1
45
COc1ccc(-c2[nH]nc3c2C(=O)c2c(NC(=O)C(C)C)cccc2-3)cc1
35

Query string: Would you kindly share the measured IC50 for COc1ccc(-c2[nH]nc3c2C(=O)c2c(NC(=O)Cc4ccc(N)cc4)cccc2-3)cc1 ?
Result string: 0.48

###

Molecular target: Cyclin-dependent kinase 2/cyclin E (Homo sapiens, UniProt P24941)
Test: Inhibition of Cyclin-dependent kinase 2-cyclin E
recorded metric: log10(IC50) (log10 of the value in nM)
Scale: log10; quantity: IC50; unit before log: nM

For orientation, consider the following solved cases.
COc1ccc(-c2[nH]nc3c2C(=O)c2c(NC(C)=O)cccc2-3)cc1
2.43
COc1ccc(-c2[nH]nc3c2C(=O)c2c(NC(=O)Cc4ccc(N)cc4)cccc2-3)cc1
1.58
COc1ccc(-c2[nH]nc3c2C(=O)c2c(NC=O)cccc2-3)cc1
1.90

Query string: Give its log10(IC50) value. Item: COc1ccc(-c2[nH]nc3c2C(=O)c2ccccc2-3)cc1
Result string: 4.41

Query string: Given the entry COc1ccc(-c2[nH]nc3c2C(=O)c2c(NC(=O)C(C)C)cccc2-3)cc1 , report its measured log10(IC50).
Result string: 3.15

Query string: Query: log10(IC50); subject: COc1ccc(-c2[nH]nc3c2C(=O)c2c(NC(=O)C(C)(C)C)cccc2-3)cc1
Result string: 3.32

Query string: Find the recorded log10(IC50) belonging to COc1ccc(-c2[nH]nc3c2C(=O)c2c(NC(=O)c4ccccc4)cccc2-3)cc1 and report it.
Result string: 4.61

###

Tested on: HCT-116
Experiment: Inhibition of HCT116 cell proliferation
Assay type: functional, cell-based
Conditions: Homo sapiens
recorded metric: IC50 (nM)
Respond numerically; units are nM and should not be typed.

COc1ccc(-c2[nH]nc3c2C(=O)c2c(NC=O)cccc2-3)cc1
690

Query string: # get_value(readout='IC50', item= COc1ccc(-c2[nH]nc3c2C(=O)c2c(NC(=O)C(C)C)cccc2-3)cc1 )
Result string: 2900

Query string: Given the entry COc1ccc(-c2[nH]nc3c2C(=O)c2c(NC(=O)C(C)(C)C)cccc2-3)cc1 , report its measured IC50.
Result string: 7500

Query string: Fill in: IC50 of COc1ccc(-c2[nH]nc3c2C(=O)c2c(NC(C)=O)cccc2-3)cc1 is ___
Result string: 2700

Query string: Returns the measured IC50 for the input compound. Input: COc1ccc(-c2[nH]nc3c2C(=O)c2c(NC(=O)Cc4ccc(N)cc4)cccc2-3)cc1
Result string: 400
